Values from patent US8580811B2

Target: human AR (Homo sapiens)
Construct: expressed in transfected cells; host or cells: COS-1 cells
Assay: IR Binding Assay: whole cell competitive binding of test compounds against 3H-DHT in COS-1 cells transfected with pRShAR
Method: For the whole cell binding assay, COS-1 cells in 96-well microtiter plates including DMEM-10% FBS were transfected as described above with the following plasmid DNA: pRShAR (2 ng/well), pRS-β-Gal (50 ng/well) and pGEM (48 ng/well). […] For the saturation analyses, the difference between the total binding and the nonspecific binding, normalized by the β-Gal rate, was defined as specific binding. The specific binding was evaluated by Scatchard analysis to determine the Kd for ^3H-DHT. […]
Measured attribute: Ki

query: Tell me measured Ki for CCc1c(C)c2c3c(Cl)cc(=O)[nH]c3ccc2n1CC(O)C(F)(F)F (racemic) please.
result: < 5 nM

query: Recall and state the measured Ki for COc1ccc(C2C(C)c3c(ccc4[nH]c(=O)cc(Cl)c34)N2CC(F)(F)F)cc1 (racemic) .
result: 5 to 10 nM

query: Answer with the recorded Ki of CC1c2c(ccc3[nH]c(=O)cc(Cl)c23)N(CC(F)(F)Cl)C1C (racemic) only.
result: < 5 nM

query: # return recorded Ki for input O=c1cc(Cl)c2c(ccc3[nH]c4c(c32)CCCC4)[nH]1
result: > 10 nM

query: Provide one value: measured Ki of CCc1c(C)c2c3c(C(F)(F)F)cc(=O)[nH]c3ccc2n1CC(F)(F)C(F)(F)F
result: < 5 nM

query: Query Ki for CCC1C(C)c2c(ccc3[nH]c(=O)cc(C(F)(F)F)c23)N1CCC(F)(F)F (racemic)
result: < 5 nM

query: Give reported Ki value for Cc1c(C)n(C[C@H](O)C(F)(F)F)c2ccc3[nH]c(=O)cc(C(F)(F)F)c3c12
result: > 10 nM

query: Give recorded Ki. CC1c2c(ccc3[nH]c(=O)cc(Cl)c23)N(CC(F)(F)F)C1c1ccc(C(F)(F)F)cc1 (racemic)
result: > 10 nM

###

Target: human AR (Homo sapiens, UniProt P10275)
Construct: expressed in transfected cells; host or cells: COS-1 cells
Sequence (P10275 whole entry): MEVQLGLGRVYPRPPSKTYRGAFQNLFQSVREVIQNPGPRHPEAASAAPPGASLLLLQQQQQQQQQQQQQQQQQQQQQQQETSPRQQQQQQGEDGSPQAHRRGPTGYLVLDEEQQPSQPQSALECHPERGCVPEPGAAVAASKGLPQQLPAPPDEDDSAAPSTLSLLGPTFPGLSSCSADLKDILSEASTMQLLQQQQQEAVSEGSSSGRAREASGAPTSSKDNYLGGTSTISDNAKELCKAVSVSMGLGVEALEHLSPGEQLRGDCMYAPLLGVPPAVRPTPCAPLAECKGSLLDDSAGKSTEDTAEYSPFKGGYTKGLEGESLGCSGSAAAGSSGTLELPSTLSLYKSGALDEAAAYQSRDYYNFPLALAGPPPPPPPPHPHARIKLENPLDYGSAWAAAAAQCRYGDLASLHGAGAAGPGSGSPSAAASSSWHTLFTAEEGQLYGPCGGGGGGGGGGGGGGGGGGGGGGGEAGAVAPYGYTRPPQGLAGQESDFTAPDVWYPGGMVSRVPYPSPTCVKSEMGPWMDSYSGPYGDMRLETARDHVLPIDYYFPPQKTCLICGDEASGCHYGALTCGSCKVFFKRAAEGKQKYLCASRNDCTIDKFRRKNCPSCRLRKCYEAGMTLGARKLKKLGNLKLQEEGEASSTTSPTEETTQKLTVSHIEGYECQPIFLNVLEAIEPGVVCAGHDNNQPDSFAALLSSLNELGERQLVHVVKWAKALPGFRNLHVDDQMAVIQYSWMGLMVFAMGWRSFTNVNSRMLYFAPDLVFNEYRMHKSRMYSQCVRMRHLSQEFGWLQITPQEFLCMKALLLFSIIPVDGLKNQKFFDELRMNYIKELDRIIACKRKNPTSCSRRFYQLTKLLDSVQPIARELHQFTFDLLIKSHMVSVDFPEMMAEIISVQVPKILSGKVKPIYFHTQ
Assay: IR Binding Assay: whole cell competitive binding of test compounds against 3H-DHT in COS-1 cells transfected with pRShAR
Method: For the whole cell binding assay, COS-1 cells in 96-well microtiter plates including DMEM-10% FBS were transfected as described above with the following plasmid DNA: pRShAR (2 ng/well), pRS-β-Gal (50 ng/well) and pGEM (48 ng/well). […] For the saturation analyses, the difference between the total binding and the nonspecific binding, normalized by the β-Gal rate, was defined as specific binding. The specific binding was evaluated by Scatchard analysis to determine the Kd for ^3H-DHT. […]
Measured attribute: Ki

query: Give the value of Ki reported for the following: CCc1c(-c2ccccc2)n(CC(F)(F)F)c2ccc3[nH]c(=O)cc(Cl)c3c12 [Compound 203]
result: < 5 nM

query: Give a short answer stating reported Ki for O=c1cc(Cl)c2c3c(ccc2[nH]1)N(CC(F)(F)F)C1CCCC31 (racemic) [Compound 126] .
result: < 5 nM

query: Answer with reported Ki of Cc1c(-c2ccccc2)n(CCC(F)(F)F)c2ccc3[nH]c(=O)cc(Cl)c3c12 [Compound 217]
result: < 5 nM

query: // fetch Ki given entry CC1c2c(ccc3[nH]c(=O)cc(Cl)c23)N(CC(F)(F)F)C1c1ccc(F)cc1F (racemic) [Compound 150]
result: > 10 nM

query: Provide measured Ki value, entry: Cc1c(C)n(CCCO)c2ccc3[nH]c(=O)cc(Cl)c3c12 [Compound 287]
result: > 10 nM

query: Tell us which Ki value is on record for CC1c2c(ccc3[nH]c(=O)cc(Cl)c23)N(CC(F)(F)C(F)(F)C(F)(F)F)C1C (racemic) [Compound 168]
result: > 10 nM

query: Tell us which Ki value is on record for Cc1c(-c2cccs2)n(C[C@H](O)C(F)(F)F)c2ccc3[nH]c(=O)cc(Cl)c3c12 [Compound 272]
result: < 5 nM

query: Supply measured Ki of COc1ccc(-c2c(C)c3c4c(Cl)cc(=O)[nH]c4ccc3n2CC(F)(F)F)cc1 [Compound 197] in your reply.
result: < 5 nM

query: Specify measured Ki for CCCN1c2ccc3[nH]c(=O)cc(Cl)c3c2C(C)C1C (racemic) [Compound 137] .
result: < 5 nM

query: Look up and state reported Ki for Cc1c(C)n(CC(F)(F)Cl)c2ccc3[nH]c(=O)cc(Cl)c3c12 [Compound 212]
result: < 5 nM

query: Identify measured Ki corresponding to Cc1c(C)n(CC(F)(F)C(F)(F)F)c2ccc3[nH]c(=O)cc(C(F)(F)F)c3c12 [Compound 219]
result: < 5 nM

query: Retrieve Ki measured for Cc1c(-c2cccs2)n(CC(F)(F)F)c2ccc3[nH]c(=O)cc(Cl)c3c12 [Compound 207] and print it.
result: < 5 nM

query: Answer with reported Ki of Cc1c(-c2nccs2)n(C[C@H](O)C(F)(F)F)c2ccc3[nH]c(=O)cc(Cl)c3c12 [Compound 276]
result: > 10 nM

query: Given the molecule CC1c2c(ccc3[nH]c(=O)cc(Cl)c23)N(Cc2ccccc2)C1C (racemic) [Compound 144] , write its reported Ki.
result: 5 to 10 nM

query: Quickly give me recorded Ki for CCC1C(C)c2c(ccc3[nH]c(=O)cc(C(F)(F)F)c23)N1CC(F)(F)Cl (racemic) [Compound 178]
result: < 5 nM

query: Give recorded Ki. Cc1c(C)n(CCO)c2ccc3[nH]c(=O)cc(C(F)(F)F)c3c12 [Compound 240]
result: > 10 nM

query: Kindly indicate its recorded Ki. Item: Cc1c(C)n(CCCC(F)(F)F)c2ccc3[nH]c(=O)cc(C(F)(F)F)c3c12 [Compound 227]
result: < 5 nM

query: Please give the documented Ki of CCC1c2c(ccc3[nH]c(=O)cc(Cl)c23)N(CC(F)(F)F)C1c1cccs1 (racemic) [Compound 164]
result: < 5 nM

query: Look up Ki of CC1Cc2c(ccc3[nH]c(=O)cc(Cl)c23)N1CC(F)(F)F (racemic) [Compound 131] and report it.
result: > 10 nM

query: Look up and report measured Ki for this entry: CC1c2c(ccc3[nH]c(=O)cc(Cl)c23)N(CC(F)(F)F)C1C (racemic) [Compound 127]
result: 5 to 10 nM

query: Quick one: give measured Ki for Cc1c(C)n(CCC(C)(C)O)c2ccc3[nH]c(=O)cc(C(F)(F)F)c3c12 [Compound 239]
result: > 10 nM

query: Look up and state reported Ki for Cc1c(C)n(CC(O)CCl)c2ccc3[nH]c(=O)cc(C(F)(F)F)c3c12 (centres unmarked) [Compound 294]
result: < 5 nM

query: Retrieve Ki measured for O=c1cc(Cl)c2c3c(ccc2[nH]1)N(CC(F)(F)F)C1CCCCC31 (racemic) [Compound 133] and print it.
result: < 5 nM

query: Report Ki for CC1c2c(ccc3[nH]c(=O)cc(Cl)c23)N(C)C1C (racemic) [Compound 136]
result: > 10 nM

query: Input CCC1C(C)c2c(ccc3[nH]c(=O)cc(Cl)c23)N1CC (racemic) [Compound 166] , output reported Ki.
result: > 10 nM

query: In one line, give reported Ki of the entry Cc1c(C)n(CCCO)c2ccc3[nH]c(=O)cc(C(F)(F)F)c3c12 [Compound 249] .
result: < 5 nM

query: Fill in reported Ki for this entry: Cc1c(C)n(C[C@H](O)CO)c2ccc3[nH]c(=O)cc(C(F)(F)F)c3c12 [Compound 295]
result: > 10 nM

query: Report Ki, nothing else, for this molecule: CCc1[nH]c2ccc3[nH]c(=O)cc(Cl)c3c2c1C [Compound 106]
result: 5 to 10 nM

query: Please report the measured Ki for CC1c2c(ccc3[nH]c(=O)cc(Cl)c23)N(CC(F)(F)F)C1c1ccc(Cl)cc1 (racemic) [Compound 152]
result: > 10 nM

query: Provide Ki value for the following molecule: CCCc1c(C)[nH]c2ccc3[nH]c(=O)cc(Cl)c3c12 [Compound 124]
result: > 10 nM

query: Give a short answer stating reported Ki for CC1c2c(ccc3[nH]c(=O)cc(Cl)c23)N(CC(F)(F)F)C1c1cccc(Br)c1 (racemic) [Compound 153] .
result: > 10 nM

query: Report measured Ki; entry is Cc1ccc(-c2c(C)c3c4c(Cl)cc(=O)[nH]c4ccc3n2C[C@@H](O)C(F)(F)F)s1 [Compound 285]
result: < 5 nM

###

Target: human AR (Homo sapiens)
Construct: expressed in transfected cells; host or cells: COS-1 cells
Test: IR Binding Assay: whole cell competitive binding of test compounds against 3H-DHT in COS-1 cells transfected with pRShAR
Measured attribute: Ki

query: Respond only with Ki recorded for CCc1c(C)c2c3c(Cl)cc(=O)[nH]c3ccc2n1CC(F)(F)C(F)(F)F
result: < 5 nM

query: Look up and report measured Ki for this entry: C#CCn1c(C)c(C)c2c3c(C(F)(F)F)cc(=O)[nH]c3ccc21
result: < 5 nM

query: Supply recorded Ki for CCCC1c2c(ccc3[nH]c(=O)cc(Cl)c23)N(CC(F)(F)F)C1C (racemic) here.
result: < 5 nM

query: Tell me its Ki given Cc1[nH]c2ccc3[nH]c(=O)cc(Cl)c3c2c1C as the entry.
result: < 5 nM

query: Consider the compound Cc1c(C)n(CCCF)c2ccc3[nH]c(=O)cc(C(F)(F)F)c3c12 and give its recorded Ki.
result: < 5 nM

query: Give Ki for Cc1c(-c2cccnc2)n(CC(F)(F)F)c2ccc3[nH]c(=O)cc(Cl)c3c12
result: > 10 nM

query: Check the records and state Ki for Cc1c(CO)n(CC(F)(F)F)c2ccc3[nH]c(=O)cc(C(F)(F)F)c3c12
result: > 10 nM

query: Please indicate Ki recorded for CC1c2c(ccc3[nH]c(=O)cc(C(F)(F)F)c23)N(CC(F)(F)Cl)C1C (racemic)
result: < 5 nM
